tested on: Escherichia coli; test: Antimicrobial activity against Escherichia coli DH5[alpha] harboring pBC-CTX-M-71 plasmid by agar dilution method; format: functional
RECORDED METRIC: MIC (µg/mL)
All answers are understood in µg/mL, so give the number only.

Retrieve MIC on Escherichia coli; query `CO/N=C(\C(=O)N[C@@H]1C(=O)N2C(C(=O)O)=C(COC(N)=O)CS[C@H]12)c1ccco1`
512

Retrieve MIC on Escherichia coli; query `CC(C)(O/N=C(\C(=O)N[C@@H]1C(=O)N2C(C(=O)[O-])=C(C[n+]3ccccc3)CS[C@H]12)c1csc(N)n1)C(=O)O`
8

Retrieve MIC on Escherichia coli; query `CO[C@@]1(NC(=O)Cc2cccs2)C(=O)N2C(C(=O)O)=C(COC(N)=O)CS[C@@H]21`
4

Retrieve MIC on Escherichia coli; query `C[C@@H](O)[C@H]1C(=O)N2C(C(=O)O)=C(S[C@@H]3CN[C@H](C(=O)N(C)C)C3)[C@H](C)[C@H]12`
0.03

* * *

system: Escherichia coli; experiment: Antimicrobial activity against Escherichia coli DH5[alpha] harboring pBC-CTX-M-15 plasmid by agar dilution method; format: functional
Record form. Attribute: MIC. Fill in for each entry.
All answers are understood in µg/mL, so give the number only.

Identify the reported MIC for the following entry. CO/N=C(\C(=O)N[C@@H]1C(=O)N2C(C(=O)[O-])=C(C[N+]3(C)CCCC3)CS[C@H]12)c1csc(N)n1 [CEFEPIME]
16

Identify the reported MIC for the following entry. `C[C@@H](O)[C@H]1C(=O)N2C(C(=O)O)=C([C@H]3CCCO3)S[C@H]12`
1

Identify the reported MIC for the following entry. `C[C@@H](O)[C@H]1C(=O)N2C(C(=O)O)=C(S[C@@H]3CN[C@H](C(=O)Nc4cccc(C(=O)O)c4)C3)[C@H](C)[C@H]12`
0.03

Identify the reported MIC for the following entry. `CC(C)(O/N=C(\C(=O)N[C@@H]1C(=O)N2C(C(=O)[O-])=C(C[n+]3ccccc3)CS[C@H]12)c1csc(N)n1)C(=O)O`
64

Identify the reported MIC for the following entry. `C[C@@H](O)[C@H]1C(=O)N2C(C(=O)O)=C(S[C@@H]3CN[C@H](C(=O)N(C)C)C3)[C@H](C)[C@H]12`
0.03

* * *

system: Escherichia coli; experiment: Antimicrobial activity against Escherichia coli K-12 by agar dilution method in presence of beta-lactamase inhibitor clavulanic acid; assay type: functional
Record form. Attribute: MIC. Fill in for each entry.
Returns: string containing the numeric result and its unit.

Identify the reported MIC for the following entry. `CC(C)(O/N=C(\C(=O)N[C@@H]1C(=O)N2C(C(=O)[O-])=C(C[n+]3ccccc3)CS[C@H]12)c1csc(N)n1)C(=O)O`
0.06 µg/mL

Identify the reported MIC for the following entry. `C[C@@H](O)[C@H]1C(=O)N2C(C(=O)O)=C([C@H]3CCCO3)S[C@H]12`
0.5 µg/mL

Identify the reported MIC for the following entry. C[C@@H](O)[C@H]1C(=O)N2C(C(=O)O)=C(SCCNC=N)C[C@H]12 [IMIPENEM ANHYDROUS]
0.13 µg/mL

Identify the reported MIC for the following entry. `CO/N=C(\C(=O)N[C@@H]1C(=O)N2C(C(=O)O)=C(COC(C)=O)CS[C@H]12)c1csc(N)n1`
0.016 µg/mL

Identify the reported MIC for the following entry. `CC1(C)S[C@@H]2[C@H](NC(=O)[C@H](N)c3ccc(O)cc3)C(=O)N2[C@H]1C(=O)O`
2 µg/mL

Identify the reported MIC for the following entry. `C[C@@H](O)[C@H]1C(=O)N2C(C(=O)O)=C(S[C@@H]3CN[C@H](C(=O)N(C)C)C3)[C@H](C)[C@H]12`
0.016 µg/mL

Entry source: ChEMBL document CHEMBL1649220
